Where these numbers come from: ChEMBL document CHEMBL4831501

Target: Lysine-specific demethylase 4D (Homo sapiens)
Sequence (whole entry): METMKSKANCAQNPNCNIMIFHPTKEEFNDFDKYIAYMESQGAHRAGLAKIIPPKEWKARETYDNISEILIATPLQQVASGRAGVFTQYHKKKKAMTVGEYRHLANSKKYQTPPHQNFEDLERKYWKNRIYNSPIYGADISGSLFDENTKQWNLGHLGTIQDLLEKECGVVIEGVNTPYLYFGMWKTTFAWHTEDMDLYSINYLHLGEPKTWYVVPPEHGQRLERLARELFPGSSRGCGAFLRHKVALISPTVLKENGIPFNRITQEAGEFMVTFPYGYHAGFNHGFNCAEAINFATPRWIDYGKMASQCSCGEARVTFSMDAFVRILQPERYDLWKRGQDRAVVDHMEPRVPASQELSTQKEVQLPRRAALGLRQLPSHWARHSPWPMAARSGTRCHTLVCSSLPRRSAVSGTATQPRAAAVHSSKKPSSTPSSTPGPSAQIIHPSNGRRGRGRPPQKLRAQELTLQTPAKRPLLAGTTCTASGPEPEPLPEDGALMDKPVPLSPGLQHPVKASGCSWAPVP
Experiment: Inhibition of human KDM4D expressed in Escherichia coli BL21 (DE3) at 1 uM using biotinylated H3-derived peptide and 2-OG as substrate preincubated for 15 mins followed by substrate addition and measured after 1 hr by AlphaLISA assay
Settings: time 75.0 min
inhibition listing for selected compounds.
readout-label: inhibition (%)

>>> quantitative_readout("CC(C)(C)OC(=O)N[C@@H]1CCN(C(c2ccncc2)c2cc3c(cc2O)OCO3)C1 (stereo not given in full)")
97.2
>>> quantitative_readout("CC(C)(C)OC(=O)N[C@@H]1CCN(C(c2ccc(-n3cccc3)cc2)c2cc3c(cc2O)OCO3)C1 (stereo not given in full)")
95.6
>>> quantitative_readout("COc1cc(O)c(C(c2ccncc2)N2CC[C@@H](NC(=O)OC(C)(C)C)C2)cc1OC (stereo not given in full)")
98.6
>>> quantitative_readout("N[C@@H]1CCN(C(c2ccncc2)c2cc3c(cc2O)OCO3)C1 (stereo not given in full)")
33.6
>>> quantitative_readout("CC(C)(C)OC(=O)N[C@@H]1CCN(C(c2cccc(C#N)c2)c2cc3c(cc2O)OCO3)C1 (stereo not given in full)")
96.5

----------
Target: Lysine-specific demethylase 4D (Homo sapiens)
Assay: Inhibition of human KDM4D expressed in Escherichia coli BL21 (DE3) at 1 uM using biotinylated H3-derived peptide and 2-OG as substrate preincubated for 15 mins followed by substrate addition and measured after 1 hr by AlphaLISA assay
Details: time 75.0 min
Catalogue of inhibition readings, one per entry.
readout-label: inhibition

>>> result("COc1cccc(C(=O)N[C@@H]2CCN(C(c3ccncc3)c3cc4c(cc3O)OCO4)C2)c1 (stereo partly specified)")
"99.4%"
>>> result("CC(C)(C)OC(=O)N[C@@H]1CCN(C(c2cncnc2)c2cc3c(cc2O)OCO3)C1 (stereo partly specified)")
"64.4%"
>>> result("CC(C)(C)OC(=O)N[C@@H]1CCN(C(c2ccncc2)c2cc3c(cc2O)OC(F)(F)O3)C1 (stereo partly specified)")
"0.88%"
>>> result("CC(C)(C)OC(=O)N[C@@H]1CCN(C(c2ccc(-c3ccncc3)cn2)c2cc3c(cc2O)OCO3)C1 (stereo partly specified)")
"96.6%"
>>> result("CN(C(=O)OC(C)(C)C)[C@@H]1CCN(C(c2ccncc2)c2cc3c(cc2O)OCO3)C1 (stereo partly specified)")
"87.6%"
>>> result("O=C(N[C@H]1CCN(C(c2ccncc2)c2cc3c(cc2O)OCO3)C1)C1CC1 (stereo partly specified)")
"96.6%"
>>> result("CC(C)(C)OC(=O)N[C@@H]1CCN(C(c2ccncc2)c2cc3c(cc2O)OC(C)(C)O3)C1 (stereo partly specified)")
"76%"
>>> result("COc1cc(C#N)ccc1C(c1cc2c(cc1O)OCO2)N1CC[C@@H](NC(=O)OC(C)(C)C)C1 (stereo partly specified)")
"98.1%"
>>> result("COc1ccc(OC)c(C(c2ccncc2)N2CC[C@@H](NC(=O)OC(C)(C)C)C2)c1O (stereo partly specified)")
"97.5%"
>>> result("CCOc1ccc(C(=O)N[C@@H]2CCN(C(c3ccncc3)c3cc4c(cc3O)OCO4)C2)cc1 (stereo partly specified)")
"97.3%"
>>> result("O=C(N[C@@H]1CCN(C(c2ccncc2)c2cc3c(cc2O)OCO3)C1)c1ccccc1F (stereo partly specified)")
"96.6%"
>>> result("COC(=O)c1cccc(C(c2cc3c(cc2O)OCO3)N2CC[C@@H](NC(=O)OC(C)(C)C)C2)c1 (stereo partly specified)")
"98.3%"
>>> result("CC(C)C(=O)N[C@@H]1CCN(C(c2ccncc2)c2cc3c(cc2O)OCO3)C1 (stereo partly specified)")
"96.5%"
>>> result("CC(C)(C)OC(=O)N[C@@H]1CCN(C(c2ccc(-c3ccncc3)nc2)c2cc3c(cc2O)OCO3)C1 (stereo partly specified)")
"97.1%"
>>> result("COc1ccccc1C(=O)N[C@@H]1CCN(C(c2ccncc2)c2cc3c(cc2O)OCO3)C1 (stereo partly specified)")
"99.1%"
>>> result("CC(C)(C)OC(=O)N[C@@H]1CCN(C(c2cccc(-c3ccncc3)c2)c2cc3c(cc2O)OCO3)C1 (stereo partly specified)")
"95.6%"
>>> result("COC(=O)c1ccc(C(c2cc3c(cc2O)OCO3)N2CC[C@@H](NC(=O)OC(C)(C)C)C2)cc1 (stereo partly specified)")
"99.4%"
>>> result("CC(C)(C)OC(=O)N[C@@H]1CCN(C(c2ccc(-c3ccccc3)cc2)c2cc3c(cc2O)OCO3)C1 (stereo partly specified)")
"10.6%"
>>> result("O=C(N[C@@H]1CCN(C(c2ccncc2)c2cc3c(cc2O)OCO3)C1)c1ccccc1Cl (stereo partly specified)")
"94.2%"
>>> result("CC(C)(C)NC(=O)N[C@@H]1CCN(C(c2ccncc2)c2cc3c(cc2O)OCO3)C1 (stereo partly specified)")
"97.2%"
>>> result("CC(C)(C)OC(=O)N[C@@H]1CCN(C(c2ccc(-c3ccncc3)cc2)c2cc3c(cc2O)OCO3)C1 (stereo partly specified)")
"99.5%"
>>> result("CC(C)(C)OC(=O)N[C@@H]1CCN(C(c2ccncc2)c2ccccc2O)C1 (stereo partly specified)")
"1.9%"
>>> result("CC(C)(C)NC(=S)N[C@@H]1CCN(C(c2ccncc2)c2cc3c(cc2O)OCO3)C1 (stereo partly specified)")
"96.4%"
>>> result("CC(C)(C)OC(=O)N[C@@H]1CCN(C(c2ccncc2)c2ccc(C(C)(C)C)cc2O)C1 (stereo partly specified)")
"-8.59%"
>>> result("CC(C)(C)OC(=O)N[C@@H]1CCN(C(c2cccc(-c3ccccn3)c2)c2cc3c(cc2O)OCO3)C1 (stereo partly specified)")
"91.4%"
>>> result("O=C(N[C@@H]1CCN(C(c2ccncc2)c2cc3c(cc2O)OCO3)C1)C1CCCCC1 (stereo partly specified)")
"99.2%"
>>> result("O=C(NC[C@@H]1CCN(C(c2ccncc2)c2cc3c(cc2O)OCO3)C1)C1CC1 (stereo partly specified)")
"93.6%"
>>> result("CC(C)(C)OC(=O)N[C@@H]1CCN(C(c2ccc(-n3cncn3)cc2)c2cc3c(cc2O)OCO3)C1 (stereo partly specified)")
"99.7%"
>>> result("COc1cc(O)c(C(c2ccncc2)N2CC[C@@H](NC(=O)OC(C)(C)C)C2)cc1F (stereo partly specified)")
"12.9%"
>>> result("CC(C)(C)OC(=O)N[C@@H]1CCN(C(c2ccc(C#N)cn2)c2cc3c(cc2O)OCO3)C1 (stereo partly specified)")
"100%"
>>> result("CC(C)(C)OC(=O)N[C@@H]1CCN(C(c2cccc(-n3ccnc3)c2)c2cc3c(cc2O)OCO3)C1 (stereo partly specified)")
"99.7%"
>>> result("COc1ccc(O)c(C(c2ccncc2)N2CC[C@@H](NC(=O)OC(C)(C)C)C2)c1 (stereo partly specified)")
"-3.27%"
>>> result("CC(C)(C)C(=O)N[C@@H]1CCN(C(c2ccncc2)c2cc3c(cc2O)OCO3)C1 (stereo partly specified)")
"98.7%"
>>> result("CC(C)(C)OC(=O)N[C@@H]1CCN(C(c2cc3c(cc2O)OCO3)c2ccc(F)cc2Cl)C1 (stereo partly specified)")
"98.5%"
>>> result("O=C(N[C@@H]1CCN(C(c2ccncc2)c2cc3c(cc2O)OCO3)C1)C1CC1 (stereo partly specified)")
"99.8%"
>>> result("CC(C)(C)OC(=O)N[C@@H]1CCN(C(c2cc3c(cc2O)OCO3)c2ccc(C#N)cc2F)C1 (stereo partly specified)")
"99.4%"

----------
Test system: HCT-116
Test: Antiproliferative activity against human HCT-116 cells assessed as reduction in cell viability measured after 72 hrs by MTT assay
Format: functional, cell-based
Details: HCT-116, 72 h
pIC50: −log10 of the molar value.
readout-label: pIC50

>>> quantitative_readout("CC(C)(C)OC(=O)N[C@@H]1CCN(C(c2ccc(-c3ccncc3)cc2)c2cc3c(cc2O)OCO3)C1 (stereo partly specified)")
4.97
